Source listed as PubChem BioAssay AID2060500.

- Tested on: 596521-263-R-J1-PDC complex spheroids, viability % of control;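 also: spheroids exposed to drugs for 7 days before viability reading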
- assay comment: Anticancer human tumor 596521-263-R-J1-PDC patient-derived soft tissue sarcoma cell line growth inhibition [GQUAD]; active = viability on the fitted dose curve at most 10% of control; inactive = the rest
- measurement context: second compound 0.0316 µM; first compound 1 µM
Choose the fitting class; nothing outside active, inactive is accepted.

Hey, what did the test say about Nc1ccn(C2OC(CO)C(O)C2(F)F)c(=O)n1 (stereo not given) + CN(C)c1ccc(Nc2c3ccc(NC(=O)CCN4CCCC4)cc3nc3cc(NC(=O)CCN4CCCC4)ccc23)cc1 ? inactive

Hey, what did the test say about CC1COCCN1c1cc(C2(S(C)(=N)=O)CC2)nc(-c2ccnc3[nH]ccc23)n1 (stereo not given) + CN(C)c1ccc(Nc2c3ccc(NC(=O)CCN4CCCC4)cc3nc3cc(NC(=O)CCN4CCCC4)ccc23)cc1 ? inactive

Hey, what did the test say about COc1cccc2c1C(=O)c1c(O)c3c(c(O)c1C2=O)CC(O)(C(=O)CO)CC3OC1CC(N)C(O)C(C)O1 (stereo not given) + Cc1cnc(CNC(=O)c2c(=O)c3ccc(N4CCCN(C)CC4)nc3n3c2sc2ccccc23)cn1 ? inactive

Hey, what did the test say about CCCS(=O)(=O)Nc1ccc(F)c(C(=O)c2c[nH]c3ncc(-c4ccc(Cl)cc4)cc23)c1F + Cc1[nH]c2ccc(F)cc2c1-c1nc2c3cccnc3c3ncccc3c2[nH]1 ? inactive

Hey, what did the test say about COc1ccc([C@@H](O)c2cc(-c3ncnc4cc(N5CCOCC5)ccc34)c(F)cc2Cl)nn1 + CN(C)c1ccc(Nc2c3ccc(NC(=O)CCN4CCCC4)cc3nc3cc(NC(=O)CCN4CCCC4)ccc23)cc1 ? inactive

Hey, what did the test say about CC(=O)O[C@H]1C(=O)[C@@]2(C)[C@H]([C@H](OC(=O)c3ccccc3)[C@]3(O)C[C@H](OC(=O)[C@H](O)[C@@H](NC(=O)c4ccccc4)c4ccccc4)C(C)=C1C3(C)C)[C@]1(OC(C)=O)CO[C@@H]1C[C@@H]2O + Cc1[nH]c2ccc(F)cc2c1-c1nc2c3cccnc3c3ncccc3c2[nH]1 ? active

Hey, what did the test say about CC1COCCN1c1cc(C2(O)CC3CCC(C2)O3)c2cnn(-c3ccn[nH]3)c2n1 (stereo not given) + Cc1[nH]c2ccc(F)cc2c1-c1nc2c3cccnc3c3ncccc3c2[nH]1 ? inactive

Hey, what did the test say about C=CCn1c(=O)c2cnc(Nc3ccc(N4CCN(C)CC4)cc3)nc2n1-c1cccc(C(C)(C)O)n1 + Cc1[nH]c2ccc(F)cc2c1-c1nc2c3cccnc3c3ncccc3c2[nH]1 ? inactive

Hey, what did the test say about C=CC(=O)N1CCN(c2nc(=O)n(-c3c(C)ccnc3C(C)C)c3nc(-c4c(O)cccc4F)c(F)cc23)C(C)C1 (stereo not given) + CN(C)c1ccc(Nc2c3ccc(NC(=O)CCN4CCCC4)cc3nc3cc(NC(=O)CCN4CCCC4)ccc23)cc1 ? inactive

Hey, what did the test say about COc1ncnc(C2CC2)c1-c1ncc2cnn(Cc3ccc(-c4nc(C(F)(F)F)cn4C(C)C)cc3)c2n1 + Cc1[nH]c2ccc(F)cc2c1-c1nc2c3cccnc3c3ncccc3c2[nH]1 ? inactive
